- assay-system: HLA DRB5*0101 (human)
- experimental-details: competition with 125I probe peptide, purified HLA
Entries annotated with measured pIC50
pIC50 here is simply -log10 of the concentration when that concentration is written in mol/L.

# annotated cases, reported pIC50 shown
binder: TGRCIACWRRPRTET (modifications not checked) [HPV31.E6.132 HTL epitope]
pIC50: 5.22
//
binder: WKHIRLECVLMYKAR (modifications not checked) [HPV31.E2.033 HTL epitope]
pIC50: 6.39
//
binder: NGWFYVEAVIDRQTG (modifications not checked) [HPV31.E1.15 HTL epitope]
pIC50: 5.92
//
binder: FHSIAGQYRGQCNTC (modifications not checked) [HPV45.E6.127 HTL epitope]
pIC50: 7.37
//
binder: DWVMAIFGVNPTVAEGF (modifications not checked) [HPV45.E1.228 HTL epitope]
pIC50: 6.41
//
binder: WKHMRLECAIYYKAR (modifications not checked) [HPV16.E2.033 HTL epitope]
pIC50: 6.55

Recorded result, QRFHNIRGRWTGRCM (modifications not checked) [HPV16.E6.130 HTL epitope] , pIC50: 6.04

The measured values listed here are drawn from patent US20100272750A1.
